Test: activity coefficient (dimensionless); of the first substance listed, at infinite dilution; xn = mol fraction of the nth substance listed
Conditions: 373.15 K; 100 kPa; Liquid; Chromatography; x1 = 0
Note to self: class = bucket of activity coefficient, per lowest (below 0.9), middle (0.9 to below 20), highest (20 or more)

Pick a category. Item: CC(C)CO [2-methyl-1-propanol] + CCCC[N+]1(C)CCCC1.N#CN=C=[N-]
lowest

Moving on to Cc1ccccc1C [1,2-dimethylbenzene] + CCCC[N+]1(C)CCCC1.N#CN=C=[N-]
middle

Item: CC(C)OC(C)C [diisopropyl ether] + CCCC[N+]1(C)CCCC1.N#CN=C=[N-]
middle

Queued: C1=CCCCC1 [cyclohexene] + CCCC[N+]1(C)CCCC1.N#CN=C=[N-]
middle

Please do the same for c1ccncc1 [pyridine] + CCCC[N+]1(C)CCCC1.N#CN=C=[N-] as well.
middle

Same lookup for CCCCCCC [heptane] + CCCC[N+]1(C)CCCC1.N#CN=C=[N-] , please.
highest

Would you mind doing C=CCCCCCCCC [1-decene] + CCCC[N+]1(C)CCCC1.N#CN=C=[N-] as well?
highest

Entry CC#N [acetonitrile] + CCCC[N+]1(C)CCCC1.N#CN=C=[N-] please
lowest

---

Assay: activity coefficient (dimensionless); of the first substance listed, at infinite dilution; xn = mol fraction of the nth substance listed
Conditions: 343.15 K; 100 kPa; Liquid; Chromatography; x1 = 0
Param label: returns True when activity coefficient < 2, returns False otherwise, including exact equality.

Please state whether activity coefficient is below 2 for c1ccccc1 [benzene] + CCCC[N+]1(C)CCCC1.N#CN=C=[N-]
True

# repeat for CCOC(C)(C)C [2-ethoxy-2-methylpropane] + CCCC[N+]1(C)CCCC1.N#CN=C=[N-]
False

Could you do the same for CC#N [acetonitrile] + CCCC[N+]1(C)CCCC1.N#CN=C=[N-] , please?
True

Another molecule: CCC(=O)OC [methyl propanoate] + CCCC[N+]1(C)CCCC1.N#CN=C=[N-]
False

Repeat for the following molecule: Cc1ccccc1C [1,2-dimethylbenzene] + CCCC[N+]1(C)CCCC1.N#CN=C=[N-]
False

Likewise for Cc1ccccc1 [toluene] + CCCC[N+]1(C)CCCC1.N#CN=C=[N-] ?
False

Next molecule: C#CCCCC [1-hexyne] + CCCC[N+]1(C)CCCC1.N#CN=C=[N-]
False

Now the same for CCc1ccccc1 [ethylbenzene] + CCCC[N+]1(C)CCCC1.N#CN=C=[N-]
False

Query c1ccncc1 [pyridine] + CCCC[N+]1(C)CCCC1.N#CN=C=[N-] next
True

---

Assay: activity coefficient (dimensionless); of the first substance listed, at infinite dilution; xn = mol fraction of the nth substance listed
Settings: 363.15 K; 100 kPa; Liquid; Chromatography; x1 = 0
Could you please report measured activity coefficient for the items listed next?
Lab note: jot down the number only; don't add units.

Find the recorded activity coefficient belonging to CCC(=O)OC [methyl propanoate] + CCCC[N+]1(C)CCCC1.N#CN=C=[N-] and report it.
2.33

Cool, now c1ccsc1 [thiophene] + CCCC[N+]1(C)CCCC1.N#CN=C=[N-]
1.01

Now consider CCCC(=O)OC [methyl butanoate] + CCCC[N+]1(C)CCCC1.N#CN=C=[N-] and answer again.
3.25

Consider next the molecule CCC(C)O (stereo not given) [butan-2-ol] + CCCC[N+]1(C)CCCC1.N#CN=C=[N-] in the same way.
0.869

# repeat for CC(C)OC(C)C [diisopropyl ether] + CCCC[N+]1(C)CCCC1.N#CN=C=[N-]
18.6
